Measured inhibition at 30 min, 10 µM, listed per entry for reference.
- TESTED_ON: CYP3A4 (Homo sapiens, UniProt P08684)
- Sequence (P08684 whole entry): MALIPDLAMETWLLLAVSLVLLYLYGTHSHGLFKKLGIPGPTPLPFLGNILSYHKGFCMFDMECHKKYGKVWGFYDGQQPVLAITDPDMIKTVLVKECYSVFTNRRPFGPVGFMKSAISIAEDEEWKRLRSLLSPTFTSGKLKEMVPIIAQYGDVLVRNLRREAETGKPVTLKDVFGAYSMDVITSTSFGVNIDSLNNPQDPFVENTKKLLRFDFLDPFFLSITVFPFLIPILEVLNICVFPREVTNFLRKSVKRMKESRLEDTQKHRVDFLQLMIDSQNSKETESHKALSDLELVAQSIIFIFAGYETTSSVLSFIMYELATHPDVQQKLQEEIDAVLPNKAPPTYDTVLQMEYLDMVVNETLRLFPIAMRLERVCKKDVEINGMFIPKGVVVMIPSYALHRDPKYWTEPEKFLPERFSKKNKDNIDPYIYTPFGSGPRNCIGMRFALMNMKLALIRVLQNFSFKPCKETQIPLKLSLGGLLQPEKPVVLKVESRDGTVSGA
- ASSAY_NAME: in vitro
- ASSAY_CONTEXT: CYP3A4 (% inhibition)
# unit: % | format: bare number

What measured inhibition at 30 min, 10 µM is associated with C=COC(=O)Oc1c(OC)c(C)cc2c1[C@@H]1C3[C@@H]4SC[C@]5(NCCc6c5[nH]c5ccccc65)C(=O)COC[C@@H](c5c6c(c(C)c(OC(C)=O)c54)OCO6)N3[C@@H](O)[C@H](C2)N1C (stereo partly drawn) [Compound 47] on CYP3A4 (Homo sapiens, UniProt P08684)? 38

What measured inhibition at 30 min, 10 µM is associated with COc1c(C)cc2c(c1O)[C@@H]1C3[C@@H]4SC[C@]5(NCCc6c5[nH]c5ccc(OCc7ccccc7)cc65)C(=O)COC[C@@H](c5c6c(c(C)c(OC(C)=O)c54)OCO6)N3[C@@H](O)[C@H](C2)N1C (stereo partly drawn) [Compound 29] on CYP3A4 (Homo sapiens, UniProt P08684)? 55

For CYP3A4 (Homo sapiens, UniProt P08684), provide inhibition at 30 min, 10 µM of COc1c(C)cc2c(c1O)[C@@H]1C3[C@@H]4SC[C@]5(NCCc6c5[nH]c5ccc(F)cc65)C(=O)COC[C@@H](c5c6c(c(C)c(OC(C)=O)c54)OCO6)N3[C@@H](O)[C@H](C2)N1C (stereo partly drawn) [Compound 35] please. 24
